So I've got a bunch of compounds here, and I need their IC50 values.
- Test system: STAT3 reporter activity in HeLa cells
- test_details: STAT3 luciferase reporter gene assay
- Assay type: cell-based
- measurement_setup: Homo sapiens, 2 h pretreatment, oncostatin M 10 ng/ml 4 h, read-out: STAT3 reporter assay (HeLa) IC50 ±SD

Form: item `O=C(O)c1ccc(-c2cssc2=S)cc1` ; test system STAT3 reporter activity in HeLa cells; IC50: > 100 µM

Form: item CC(C)c1cc2c(c(O)c1O)C13CCCC(C)(C)C1C(OC3=O)C2NC(=O)c1ccc(-c2cssc2=S)cc1 (stereo not drawn) ; test system STAT3 reporter activity in HeLa cells; IC50: > 100 µM

Form: item CC(C)c1cc2c(c(O)c1O)C13CCCC(C)(C)C1C(OC3=O)C2NC(=O)CCCCSS(C)(=O)=O (stereo not drawn) ; test system STAT3 reporter activity in HeLa cells; IC50: > 100 µM
